- target entity: FKBP51 (Homo sapiens, UniProt Q13451)
- Sequence (Q13451 42-130 limits assumed): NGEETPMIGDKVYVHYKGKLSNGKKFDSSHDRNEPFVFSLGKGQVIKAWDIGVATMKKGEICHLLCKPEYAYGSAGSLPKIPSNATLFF
- procedure details: Fluorescence polarization binding assay, FK1-domain of FKBP51WT with tracer F4
- Set-up: Purified FK1-domains of FKBP51WT (4.5 nM) with F4 (3 nM), FKBP52WT (400 nM) with F2 (20 nM); made in house; host or cells: E. coli BL21(DE3)pLysS
- recorded conditions: compounds B01-C25; read-out: Affinity(Ki) for FKBP51
pKi: −log10 of the molar value.
readout name: pKi

Query string: Input `COc1cc([C@@H](C(=O)N2CCCC[C@H]2C(=O)N[C@@H](CCC2CCCCC2)C(N)=O)C2CCCCC2)cc(OC)c1OC` , output reported pKi.
Result string: 4.30 to 5.00

Query string: Input `COc1cc([C@@H](C(=O)N2CCCC[C@H]2C(=O)NCC(N)=O)C2CCCCC2)cc(OC)c1OC` , output reported pKi.
Result string: 4.30 to 5.00

Query string: Input `COc1cc([C@@H](C(=O)N2CCCC[C@H]2C(=O)OC2CCCCCC2)C2CCCCC2)cc(OC)c1OC` , output reported pKi.
Result string: 4.30 to 5.00

Query string: Input `COc1cc([C@@H](C(=O)N2CCCC[C@H]2C(=O)N[C@H](Cc2c[nH]cn2)C(N)=O)C2CCCCC2)cc(OC)c1OC` , output reported pKi.
Result string: 4.30 to 5.00

Query string: Input `COc1cc([C@@H](C(=O)N2CCCC[C@H]2C(=O)N[C@@H](CCC(N)=O)C(N)=O)C2CCCCC2)cc(OC)c1OC` , output reported pKi.
Result string: 4.30 to 5.00

Query string: Input `COc1cc([C@@H](C(=O)N2CCCC[C@H]2C(=O)NC2(C(=O)NCC(N)=O)CCCC2)C2CCCCC2)cc(OC)c1OC` , output reported pKi.
Result string: 5.00 to 6.00

Query string: Input `CCNC(=O)[C@@H]1CCCCN1C(=O)[C@H](c1cc(OC)c(OC)c(OC)c1)C1CCCCC1` , output reported pKi.
Result string: 4.30 to 5.00

Query string: Input `CC[C@@H](NC(=O)[C@@H]1CCCCN1C(=O)[C@H](c1cc(OC)c(OC)c(OC)c1)C1CCCCC1)C(N)=O` , output reported pKi.
Result string: 5.00 to 6.00

Query string: Input `CC[C@H](NC(=O)[C@@H]1CCCCN1C(=O)[C@H](c1cc(OC)c(OC)c(OC)c1)C1CCCCC1)C(N)=O` , output reported pKi.
Result string: 5.00 to 6.00

Query string: Input `COc1cc([C@@H](C(=O)N2CCCC[C@H]2C(=O)OCCO)C2CCCCC2)cc(OC)c1OC` , output reported pKi.
Result string: 5.00 to 6.00

Query string: Input `COc1cc([C@@H](C(=O)N2CCCC[C@H]2C(=O)OC2(C)CCCC2)C2CCCCC2)cc(OC)c1OC` , output reported pKi.
Result string: 5.00 to 6.00

Query string: Input `CCC(CC)OC(=O)[C@@H]1CCCCN1C(=O)[C@H](c1cc(OC)c(OC)c(OC)c1)C1CCCCC1` , output reported pKi.
Result string: 4.30 to 5.00

Query string: Input `COc1cc([C@@H](C(=O)N2CCCC[C@H]2C(=O)N[C@H](C(N)=O)C2CCCCC2)C2CCCCC2)cc(OC)c1OC` , output reported pKi.
Result string: 5.00 to 6.00

Query string: Input `COc1cc([C@@H](C(=O)N2CCCC[C@H]2C(=O)OC2CCOCC2)C2CCCCC2)cc(OC)c1OC` , output reported pKi.
Result string: 5.00 to 6.00

Query string: Input `COc1cc([C@@H](C(=O)N2CCCC[C@H]2C(=O)NC2(C(N)=O)CCCCC2)C2CCCCC2)cc(OC)c1OC` , output reported pKi.
Result string: 5.00 to 6.00

Query string: Input `COc1cc([C@@H](C(=O)N2CCCC[C@H]2C(=O)N[C@H](CO)C(N)=O)C2CCCCC2)cc(OC)c1OC` , output reported pKi.
Result string: 5.00 to 6.00

Query string: Input `COc1cc([C@@H](C(=O)N2CCCC[C@H]2C(=O)NC2(C(N)=O)CCOCC2)C2CCCCC2)cc(OC)c1OC` , output reported pKi.
Result string: 4.30 to 5.00

Query string: Input CCC(C)OC(=O)C1CCCCN1C(=O)[C@H](c1cc(OC)c(OC)c(OC)c1)C1CCCCC1 (stereo in doubt) , output reported pKi.
Result string: 5.00 to 6.00
